- Tested on: MRGPRX2-MUT (MRGPRX2 N62S mutation) (Homo sapiens, UniProt Q96LB1, N62S)
- Construct: expressed in transfected cells
- Procedure summary: Primary HTS, Ca2+ mobilization (fluorescence ratio, B-score) in HEK293-Gα15 cells stably expressing the MRGPRX2 N62S mutation
- Assay type: cell-based
- Stated conditions: MRGPRX2-MUT in comparison to MRGPRX2-WT cells, 10 μM, Supplementary Table 1
- Experimental: We performed an experimental HTS on the Johns Hopkins Drug Library, which includes 1,811 (57%) FDA-approved drugs among 3,456 total compounds (28% of all known drugs worldwide) ([15]). […] We utilized 10 μM compounds (each compound was tested in triplicate) and calculated the compound effect using the signal-to-background fluorescence ratio (see Supplementary Methods). […]
Structures can show the parent of a compound that is named as a salt.
Below is a list of entries, each paired with its recorded Change of B-scores (%) value.
Numeric answer only, unit % assumed.

Known Change of B-scores (%) results, listed for orientation:
Molecule: CN(C)CCOC(c1ccc(Cl)cc1)c1ccccn1 (centres unmarked) [Carbinoxamine Maleate]
Unit abbreviation: %
Change of B-scores (%): -96.18
//
Molecule: CC(=O)OCC[N+](C)(C)C [Acetylcholine Chloride]
Unit abbreviation: %
Change of B-scores (%): 38.45
//
Molecule: CNC[C@H](O)c1ccc(O)c(O)c1 [Epinephrine Bitartrate]
Unit abbreviation: %
Change of B-scores (%): -54.24
//
Molecule: COc1ccc2c(c1)[C@]13CCCC[C@@H]1[C@H](C2)N(C)CC3 [Dextromethorphan hydrobromide]
Unit abbreviation: %
Change of B-scores (%): 119.23

Here's the next entry for you.
Measured Change of B-scores (%) of CC(C[N+](C)(C)C)OC(N)=O (centres unmarked) [Bethanechol Chloride] : 94.89

* * *

Below is a list of entries, each paired with its recorded B-scores (MUT) value.
- Tested on: MRGPRX2-MUT (MRGPRX2 N62S mutation) (Homo sapiens, UniProt Q96LB1, N62S)
- Construct: expressed in transfected cells
- Procedure summary: Primary HTS, Ca2+ mobilization (fluorescence ratio, B-score) in HEK293-Gα15 cells stably expressing the MRGPRX2 N62S mutation
- Type: cell-based
- Stated conditions: 10 μM compound, MRGPRX2-MUT (N62S) cells, Supplementary Table 1
Structures can show the parent of a compound that is named as a salt.
The answer should be written as a number, with no unit following it.

Known B-scores (MUT) results, listed for orientation:
Molecule: N=C(N)c1ccc(OCCCCCOc2ccc(C(=N)N)cc2)cc1 [Pentamidine Isethionate]
B-scores (MUT): 0.43
//
Molecule: CN1[C@@H]2CC[C@H]1C[C@@H](OC(c1ccccc1)c1ccccc1)C2 [Benztropine Methanesulfonate]
B-scores (MUT): 2.81
//
Molecule: CCOC(=O)C1=C(COCCN)NC(C)=C(C(=O)OC)C1c1ccccc1Cl (centres unmarked) [Amlodipine Besylate]
B-scores (MUT): 3.87
//
Molecule: CN(C)CCCN1c2ccccc2Sc2ccccc21 [Promazine Hydrochloride]
B-scores (MUT): 8.13

Here's the next entry for you.
Measured B-scores (MUT) of C[CH2][Hg][S]c1ccccc1C(=O)[O-].[Na+] : 0.33

* * *

Below is a list of entries, each paired with its recorded B-scores (WT) value.
- Tested on: MRGPRX2-WT (wild-type MRGPRX2 receptor) (Homo sapiens)
- Construct: expressed in transfected cells
- Sequence (Q96LB1 1-330): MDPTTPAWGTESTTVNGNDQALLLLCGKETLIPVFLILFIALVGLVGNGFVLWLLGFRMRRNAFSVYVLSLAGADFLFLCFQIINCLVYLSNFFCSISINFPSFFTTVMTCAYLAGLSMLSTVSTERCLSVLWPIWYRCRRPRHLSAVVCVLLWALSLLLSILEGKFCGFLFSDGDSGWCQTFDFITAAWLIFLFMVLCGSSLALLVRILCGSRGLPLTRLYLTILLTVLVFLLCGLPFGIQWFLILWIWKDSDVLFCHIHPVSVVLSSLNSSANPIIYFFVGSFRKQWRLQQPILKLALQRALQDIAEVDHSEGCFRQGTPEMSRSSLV
- Procedure summary: Primary HTS, Ca2+ mobilization (fluorescence ratio, B-score) in HEK293-Gα15 cells stably expressing wild-type MRGPRX2
- Format: cell-based
- Stated conditions: 10 μM compound, Supplementary Table 2
- Protocol: We performed an experimental HTS on the Johns Hopkins Drug Library, which includes 1,811 (57%) FDA-approved drugs among 3,456 total compounds (28% of all known drugs worldwide) ([15]). […] We utilized 10 μM compounds (each compound was tested in triplicate) and calculated the compound effect using the signal-to-background fluorescence ratio (see Supplementary Methods). […]
Structures can show the parent of a compound that is named as a salt.

Known B-scores (WT) results, listed for orientation:
Molecule: CC(C)(C)NCC(O)c1ccc(O)c(CO)c1 (centres unmarked)
B-scores (WT): 13.61
//
Molecule: CN(C)CCOC(c1ccccc1)c1ccc(Br)cc1.Cl (centres unmarked) [Bromazine hydrochloride]
B-scores (WT): 11.37
//
Molecule: CC(C)NCC(O)c1cc(O)cc(O)c1 (centres unmarked)
B-scores (WT): 20.54
//
Molecule: CN1[C@@H]2CC[C@H]1C[C@@H](OC(=O)C(CO)c1ccccc1)C2 (some centres unmarked) [Atropine Sulfate]
B-scores (WT): 41.43
//
Molecule: CN1[C@@H]2CC[C@H]1C[C@@H](OC(=O)[C@H](CO)c1ccccc1)C2
B-scores (WT): 17.72
//
Molecule: CNC[C@H](O)c1ccc(O)c(O)c1 [Epinephrine]
B-scores (WT): 17.52
//
Molecule: CC(=O)c1ccc2c(c1)N(CCCN(C)C)c1ccccc1S2 [Acepromazine Maleate]
B-scores (WT): 44.01

Measured B-scores (WT) of CN1[C@@H]2CC[C@H]1CC(OC(=O)[C@H](CO)c1ccccc1)C2.Cl (some centres unmarked) [Hyoscyamine Hydrochloride] : 11.54

* * *

- Tested on: MRGPRX2-MUT (MRGPRX2 N62S mutation) (Homo sapiens, UniProt Q96LB1, N62S)
- Construct: expressed in transfected cells
- Sequence (Q96LB1 1-330 N62S): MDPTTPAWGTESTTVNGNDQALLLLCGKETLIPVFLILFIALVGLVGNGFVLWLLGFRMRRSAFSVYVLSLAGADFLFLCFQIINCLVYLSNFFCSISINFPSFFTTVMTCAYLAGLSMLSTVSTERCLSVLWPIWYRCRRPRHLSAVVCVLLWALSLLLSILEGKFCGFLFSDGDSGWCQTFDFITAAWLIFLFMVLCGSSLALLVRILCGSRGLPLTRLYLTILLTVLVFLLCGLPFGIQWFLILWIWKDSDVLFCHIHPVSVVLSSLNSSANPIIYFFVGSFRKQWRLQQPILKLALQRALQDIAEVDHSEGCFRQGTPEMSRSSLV
- Procedure summary: Primary HTS, Ca2+ mobilization (fluorescence ratio, B-score) in HEK293-Gα15 cells stably expressing the MRGPRX2 N62S mutation
- Format: cell-based
- Stated conditions: MRGPRX2-MUT in comparison to MRGPRX2-WT cells, 10 μM, Table 1
Counter-ions that a name gives are not always drawn.
Recorded metric: Change of B-scores (%)
State the value with its unit after it.

Known Change of B-scores (%) results, listed for orientation:
Compound: CC(CN(C)C)CN1c2ccccc2CCc2ccccc21 (centres unmarked) [Trimipramine Maleate]
Recorded metric: Change of B-scores (%)
Endpoint result: -84.91%

Compound: CN(C)CCCN1c2ccccc2CCc2ccccc21 [Imipramine Hydrochloride]
Recorded metric: Change of B-scores (%)
Endpoint result: -47.47%

Compound: COc1ccc(CN(CCN(C)C)c2ncccn2)cc1 [Thonzylamine Hydrochloride]
Recorded metric: Change of B-scores (%)
Endpoint result: -94.91%

Compound: COc1ccc2cc1Oc1ccc(cc1)C[C@H]1c3c(cc4c(c3Oc3cc5c(cc3OC)CCN(C)[C@@H]5C2)OCO4)CCN1C [Cepharanthine]
Recorded metric: Change of B-scores (%)
Endpoint result: -94.20%

Compound: CN1CCN(c2cc3c(cc2F)c(=O)c(C(=O)O)cn3-c2ccc(F)cc2)CC1 [Difloxacin Hydrochloride]
Recorded metric: Change of B-scores (%)
Endpoint result: -103.45%

Compound: CN1CCN(c2c(F)cc3c(=O)c(C(=O)O)cn4c3c2SCC4)CC1.Cl [Rufloxacin Hydrochloride]
Recorded metric: Change of B-scores (%)
Endpoint result: -100.76%

Compound: Cl.NC1CCN(c2c(F)cc3c(=O)c(C(=O)O)cn(C4CC4)c3c2Cl)C1 (centres unmarked) [Clinafoxacin Hydrochloride]
Recorded metric: Change of B-scores (%)
Endpoint result: -96.48%

Compound: CN1CCCC(n2nc(Cc3ccc(Cl)cc3)c3ccccc3c2=O)CC1 (centres unmarked) [Azelastine Hydrochloride]
Recorded metric: Change of B-scores (%)
Endpoint result: -90.42%

Measured Change of B-scores (%) of Cc1ccc(NC(=O)c2ccc(CN3CCN(C)CC3)cc2)cc1Nc1nc(-c2cccnc2)cs1 [Masitinib] : -86.20%

Measured Change of B-scores (%) of CN(C)CC[C@@H](c1ccc(Cl)cc1)c1ccccn1 [Dexchlorpheniramine Maleate] : -97.76%

Measured Change of B-scores (%) of CN(C)CCN1C(=O)c2ccccc2N(C)c2ccccc21 [Dibenzepin] : -106.37%
